measurementTarget: T1, NHERF3_4, Q5T2W1
T1 sequence (Q5T2W1 373-468, limits assumed, looked up): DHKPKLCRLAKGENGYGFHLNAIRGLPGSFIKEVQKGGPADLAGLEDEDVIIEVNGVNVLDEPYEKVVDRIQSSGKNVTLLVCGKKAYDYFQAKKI
protocolNotes: holdup assay
Parameters: key: below the threshold = too weak to quantify, mostly under pKd 3.1 to 4
measurementContext: plain residues with an end cap or a label only (N-terminal biotin on a linker: ahx)
property: pKd

Known pKd results, listed for orientation:
>>> print(df.to_string())
                         binder       endpointresult
0  ADENEQVSAV [RAPGEF6, Q8TEU7]  below the threshold
1    KEYDDELTFF [USH1C, Q9Y6N9]                  3.8
2   YNSFLSVTTV [PDZRN3, Q9UPQ7]                 3.63
3   SKKNELFSNL [NHERF1, O14745]  below the threshold
4   SAPATLSSRA [PDLIM2, Q96JY6]  below the threshold

Req: Need pKd of AKPQPVDSWV [ARVCF, O00192] , thanks.
Resp: below the threshold

Data origin: paper PMC9482650
